For each entry below, report its IC50 value.
Molecular target: αvβ1 (Homo sapiens, UniProt P05556+P06756)
Sequence (P06756 31-992 limits assumed): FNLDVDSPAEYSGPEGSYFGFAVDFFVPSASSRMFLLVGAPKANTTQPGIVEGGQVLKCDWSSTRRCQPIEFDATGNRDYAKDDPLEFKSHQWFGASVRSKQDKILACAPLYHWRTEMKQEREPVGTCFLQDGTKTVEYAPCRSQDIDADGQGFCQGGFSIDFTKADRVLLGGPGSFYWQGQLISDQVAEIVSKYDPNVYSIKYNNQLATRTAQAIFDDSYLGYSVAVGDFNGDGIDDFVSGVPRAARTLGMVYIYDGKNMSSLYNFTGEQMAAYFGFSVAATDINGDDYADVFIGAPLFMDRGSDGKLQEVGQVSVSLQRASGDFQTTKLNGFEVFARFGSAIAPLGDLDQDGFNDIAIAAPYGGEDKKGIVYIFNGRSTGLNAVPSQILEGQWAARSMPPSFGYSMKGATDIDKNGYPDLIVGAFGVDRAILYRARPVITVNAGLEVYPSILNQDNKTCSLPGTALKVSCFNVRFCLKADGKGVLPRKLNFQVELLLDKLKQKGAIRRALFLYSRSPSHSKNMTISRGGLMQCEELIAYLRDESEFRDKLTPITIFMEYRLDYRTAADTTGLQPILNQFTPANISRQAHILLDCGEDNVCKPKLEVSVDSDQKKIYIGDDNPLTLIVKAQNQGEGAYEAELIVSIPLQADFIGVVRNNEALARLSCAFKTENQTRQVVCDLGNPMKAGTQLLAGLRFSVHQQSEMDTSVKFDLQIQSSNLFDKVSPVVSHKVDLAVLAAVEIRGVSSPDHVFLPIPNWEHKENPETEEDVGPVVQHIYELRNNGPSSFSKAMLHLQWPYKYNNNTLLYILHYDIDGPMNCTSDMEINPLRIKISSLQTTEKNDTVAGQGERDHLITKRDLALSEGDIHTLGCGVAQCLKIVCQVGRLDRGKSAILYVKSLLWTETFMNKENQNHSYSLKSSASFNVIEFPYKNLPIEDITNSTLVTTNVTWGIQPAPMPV
Sequence (P05556 21-728 limits assumed): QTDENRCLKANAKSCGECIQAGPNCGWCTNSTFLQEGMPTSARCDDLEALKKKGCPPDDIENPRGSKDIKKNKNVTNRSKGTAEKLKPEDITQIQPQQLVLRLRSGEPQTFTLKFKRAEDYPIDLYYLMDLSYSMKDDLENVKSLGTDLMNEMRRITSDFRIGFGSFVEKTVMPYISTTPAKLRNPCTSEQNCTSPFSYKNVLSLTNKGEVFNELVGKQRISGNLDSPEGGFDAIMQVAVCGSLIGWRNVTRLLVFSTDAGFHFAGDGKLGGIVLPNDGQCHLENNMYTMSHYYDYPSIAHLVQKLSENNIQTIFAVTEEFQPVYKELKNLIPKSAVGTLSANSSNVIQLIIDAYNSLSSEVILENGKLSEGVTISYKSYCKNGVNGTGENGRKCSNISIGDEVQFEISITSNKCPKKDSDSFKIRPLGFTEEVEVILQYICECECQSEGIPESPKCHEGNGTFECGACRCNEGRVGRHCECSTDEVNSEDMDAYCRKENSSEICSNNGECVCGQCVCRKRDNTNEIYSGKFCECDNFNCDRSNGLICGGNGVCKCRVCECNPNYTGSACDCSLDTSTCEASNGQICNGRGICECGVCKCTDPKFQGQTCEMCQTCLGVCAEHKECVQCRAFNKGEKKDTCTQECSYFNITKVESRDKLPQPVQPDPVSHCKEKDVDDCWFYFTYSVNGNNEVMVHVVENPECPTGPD
Assay: Solid Phase Integrin αvβ1 Assay
Structures can show the parent of a compound that is named as a salt.

Retrieve IC50 measured for O=C(O)[C@H](CO[C@@H]1CCCN(CCCc2ccc3c(n2)NCCC3)C1)Nc1ncnc2ccccc12 and print it. 100 to 1000 nM

Give IC50 for the following molecule: C[C@H]1CN(c2cccc([C@H](CNC(=O)[C@@H]3CCCN(CCCc4ccc5c(n4)NCCC5)C3)C(=O)O)c2)C[C@H](C)O1 < 100 nM

Provide only the value of recorded IC50 for O=C(O)C[C@H](NC(=O)[C@@H]1CCCN(CCCc2ccc3c(n2)NCCC3)C1)c1ccc2c(c1)C1(CC2)CC1 < 100 nM

Using known records, supply IC50 for O=C(CC[C@H](NC(=O)C12CCC(CC1)CC2)C(=O)O)N[C@@H]1CCN(C(=O)CCCc2ccc3c(n2)NCCC3)C1 < 100 nM

Please report the measured IC50 for CC1(C)CN(c2cc([C@@H](CO[C@@H]3CCCN(CCCc4ccc5c(n4)NCCC5)C3)CC(=O)O)ccc2Cl)CCO1 < 100 nM

Look up and state reported IC50 for Cc1cc(C)n(-c2cccc([C@H](CC(=O)O)NC(=O)[C@@H]3CCCN(CCCc4ccc5c(n4)NCCC5)C3)c2)c1 < 100 nM

Provide only the value of recorded IC50 for O=C(O)CC(NC(=O)[C@@H]1CCCN(CCCc2ccc3c(n2)NCCC3)C1)c1ccc2c(c1)OCC2 (stereo partly drawn) [Compound 217, hydrochloride] < 100 nM

Output measured IC50 for this item: Cc1c[s+]([O-])c2ncnc(N[C@H](CCO[C@@H]3CCCN(CCCc4ccc5c(n4)NCCC5)C3)C(=O)O)c12 (stereo partly drawn) > 1000 nM

Give the reported value of IC50 for this record: O=C(O)C[C@H](NC(=O)[C@@H]1CCCN(CCCc2ccc3c(n2)NCCC3)C1)c1cc(F)cc(C(F)(F)F)c1 > 1000 nM
